Record form. Attribute: Population Mitochondria Different-Phenotype (%). Fill in for each entry.
Test system: HEK-293T
Procedure Summary: Multiplex assay against HEK293T
Type: toxicity, cell-based
Measurement Setup: human, 48 h, 10 µM, compound concentration 10 uM, replicate 1
Return type: number; implicit unit %.

Report Population Mitochondria Different-Phenotype (%) for C[C@@H]1C[C@H]2[C@@H]3CCC4=CC(=O)C=C[C@]4(C)[C@@]3(F)[C@@H](O)C[C@]2(C)[C@@]1(O)C(=O)CO [DEXAMETHASONE] please.
18

Can you look up the measured Population Mitochondria Different-Phenotype (%) of CSc1ccccc1N1CCN(CCCCCC(=O)NC2CCCc3ccccc32)CC1.Cl (centres undefined) for me?
97

Look up Population Mitochondria Different-Phenotype (%): "CCOc1c2c(c(OCC)c3ncccc13)CN(c1ccc(CS(=O)(=O)NC(=O)Cc3ccccc3OC)cc1C)C2=O"
32

What does the data say about its Population Mitochondria Different-Phenotype (%)? Entry: "O=C1COc2nccc(-c3ccccc3F)c2CN1Cc1cc(C(F)(F)F)cc(C(F)(F)F)c1"
63
